Experiment: Stability: solids placed openly in a stability test chamber at 25° C. and 65% RH, purity by HPLC
Assay type: physicochemical
Settings: 60 days, calcium salt
PARAMETER: Purity (HPLC, area %)
Only the number, expressed in area %, is required.

Record request: Purity (HPLC, area %) value, item NC(=O)C1=CN([C@@H]2O[C@H](COP(=O)(O)O)[C@@H](O)[C@H]2O)C=CC1.[Ca+2] [NMNH calcium salt Crystalline Form A]
99.82

Record request: Purity (HPLC, area %) value, item NC(=O)C1=CN([C@@H]2O[C@H](COP(=O)(O)O)[C@@H](O)[C@H]2O)C=CC1.[Ca+2] [NMNH calcium salt Crystalline Form B]
99.75

Record request: Purity (HPLC, area %) value, item NC(=O)C1=CN([C@@H]2O[C@H](COP(=O)(O)O)[C@@H](O)[C@H]2O)C=CC1.[Ca+2] [NMNH calcium salt Crystalline Form E]
99.59

Record request: Purity (HPLC, area %) value, item NC(=O)C1=CN([C@@H]2O[C@H](COP(=O)(O)O)[C@@H](O)[C@H]2O)C=CC1.[Ca+2] [NMNH calcium salt Crystalline Form D]
99.64

Record request: Purity (HPLC, area %) value, item NC(=O)C1=CN([C@@H]2O[C@H](COP(=O)(O)O)[C@@H](O)[C@H]2O)C=CC1.[Ca+2] [NMNH calcium salt Crystalline Form C]
99.79

###

Please go through the items and note down their Water content of NMNH calcium salt crystalline form (KF).
Experiment: Hygroscopicity: solids placed openly at 25° C. and 65% RH, water content by KF
Format: physicochemical
Details: 60 days
Only the number, expressed in %, is required.

Record request: Water content of NMNH calcium salt crystalline form (KF) value, item NC(=O)C1=CN([C@@H]2O[C@H](COP(=O)(O)O)[C@@H](O)[C@H]2O)C=CC1.[Ca+2] [NMNH calcium salt Crystalline Form D]
18.3

Record request: Water content of NMNH calcium salt crystalline form (KF) value, item NC(=O)C1=CN([C@@H]2O[C@H](COP(=O)(O)O)[C@@H](O)[C@H]2O)C=CC1.[Ca+2] [NMNH calcium salt Crystalline Form E]
20.0

Record request: Water content of NMNH calcium salt crystalline form (KF) value, item NC(=O)C1=CN([C@@H]2O[C@H](COP(=O)(O)O)[C@@H](O)[C@H]2O)C=CC1.[Ca+2] [NMNH calcium salt Crystalline Form C]
9.3

Record request: Water content of NMNH calcium salt crystalline form (KF) value, item NC(=O)C1=CN([C@@H]2O[C@H](COP(=O)(O)O)[C@@H](O)[C@H]2O)C=CC1.[Ca+2] [NMNH calcium salt Crystalline Form A]
9.0

Record request: Water content of NMNH calcium salt crystalline form (KF) value, item NC(=O)C1=CN([C@@H]2O[C@H](COP(=O)(O)O)[C@@H](O)[C@H]2O)C=CC1.[Ca+2] [NMNH calcium salt Crystalline Form B]
12.9

###

Test: Hygroscopicity: solids placed openly at 25° C. and 65% RH, water content by KF
Assay type: physicochemical
Details: 5 days
Procedure: The solid forms of NMNH calcium salt crystalline form A, crystalline form B, crystalline form C, crystalline form D, and crystalline form E were placed openly in a stability test chamber at 25° C. and 65% RH to evaluate their stability and hygroscopicity.
Please go through the items and note down their Water content of NMNH calcium salt crystalline form (KF).
Only the number, expressed in %, is required.

Record request: Water content of NMNH calcium salt crystalline form (KF) value, item NC(=O)C1=CN([C@@H]2O[C@H](COP(=O)(O)O)[C@@H](O)[C@H]2O)C=CC1.[Ca+2] [NMNH calcium salt Crystalline Form A]
9.2

Record request: Water content of NMNH calcium salt crystalline form (KF) value, item NC(=O)C1=CN([C@@H]2O[C@H](COP(=O)(O)O)[C@@H](O)[C@H]2O)C=CC1.[Ca+2] [NMNH calcium salt Crystalline Form B]
13.2

Record request: Water content of NMNH calcium salt crystalline form (KF) value, item NC(=O)C1=CN([C@@H]2O[C@H](COP(=O)(O)O)[C@@H](O)[C@H]2O)C=CC1.[Ca+2] [NMNH calcium salt Crystalline Form C]
9.5

Record request: Water content of NMNH calcium salt crystalline form (KF) value, item NC(=O)C1=CN([C@@H]2O[C@H](COP(=O)(O)O)[C@@H](O)[C@H]2O)C=CC1.[Ca+2] [NMNH calcium salt Crystalline Form D]
18.4

Record request: Water content of NMNH calcium salt crystalline form (KF) value, item NC(=O)C1=CN([C@@H]2O[C@H](COP(=O)(O)O)[C@@H](O)[C@H]2O)C=CC1.[Ca+2] [NMNH calcium salt Crystalline Form E]
20.3
